Tested on: Mycobacterium tuberculosis
Test: AntiMycobacterium tuberculosis activity Non-Replicating form: Average MIC90 (uM)
Assay type: functional
Measured MIC90 of individual entries

{"columns": ["smi", "assayTarget", "cmp", "MIC90 / µM"],
 "data": [
  ["Nc1cccnc1Nc1ccc(Cl)cc1", "Mycobacterium tuberculosis", "=", 3.65],
  ["CCCc1ccc(S(=O)(=O)Nc2ccc(CN3CCN(CC4CC4)CC3)cc2)cc1", "Mycobacterium tuberculosis", "=", 47.4],
  ["O=C(C1CCN(c2nnc(-n3cccc3)s2)CC1)N1CCC(Cc2ccccc2)CC1", "Mycobacterium tuberculosis", "=", 0.8],
  ["COc1ccc(C2(C(=O)Nc3ccc(Br)cc3)CCCC2)cc1", "Mycobacterium tuberculosis", "=", 46.5],
  ["Cc1cnc(N2CCN[C@@H](Cc3ccccc3)C2)nc1Oc1ccc(-n2ccnc2)cc1", "Mycobacterium tuberculosis", "=", 27.7],
  ["CCc1c(C)nc(-n2nc(C)cc2NC(=O)c2ccccc2SC)[nH]c1=O", "Mycobacterium tuberculosis", "=", 1.25],
  ["O=C1O[C@@H](COc2ccon2)CN1c1cc(F)c(C2=CCN(Cc3ccccc3)CC2)c(F)c1", "Mycobacterium tuberculosis", "=", 2.88],
  ["COc1cccc(OCC(=O)c2ccc(Br)cc2)c1", "Mycobacterium tuberculosis", ">", 100],
  ["Brc1c(-c2ccc3c(c2)OCO3)nc2ncccn12", "Mycobacterium tuberculosis", "=", 27.8],
  ["COc1ccc2nc(C)cc(OCC(=O)Nc3ccccc3OC)c2c1", "Mycobacterium tuberculosis", "=", 1.61],
  ["c1cncc(NCc2ccc(-c3cc4ccncc4cc3OC3CCNCC3)s2)c1", "Mycobacterium tuberculosis", "=", 58.7]
]}

* * *

Tested on: Plasmodium falciparum
Assay: Antimalarial activity: Asexual Blood Stage Plasmodium falciparum 3D7 IC50 (uM)
Type: functional, organism-based
The compounds listed here are annotated with their IC50.

{"columns": ["compound", "IC50"],
 "data": [
  ["Cc1cc2ccccc2n1CC(=O)N1CC(C(=O)N2CCCCC2)Oc2ccccc21 (configuration not stated)", "1080 nM"],
  ["CCOc1ccccc1C(=O)Nc1cccc(-c2nc3ncccn3c2C)c1", "1270 nM"],
  ["O=C(Nc1ccnc(-c2cccnc2)n1)c1cc(C(F)(F)F)cc(C(F)(F)F)c1", "1050 nM"],
  ["O=C(Nc1cnc2ccccc2c1)c1cccc(-n2cnnn2)c1", "540 nM"],
  ["CC(C)(C)c1cc(C(=O)Nc2cccnc2)cc(C(=O)Nc2cccnc2)c1", "900 nM"],
  ["COc1ccccc1CNC(=O)c1cc(C2CC2)nc2c1cnn2C(C)C", "940 nM"],
  ["CO/N=C(\\C(=O)OC)c1ccccc1CO/N=C(\\C)c1cccc(C(F)(F)F)c1", "300 nM"],
  ["CS(=O)(=O)c1cccc(-c2cnc3[nH]cc(-c4ccc(CCC(=O)O)cc4)c3c2)c1", "500 nM"],
  ["O=C(NC1CCN(c2ccnc3ccccc23)C1)c1cccc(C(F)(F)F)c1 (configuration not stated)", "710 nM"],
  ["Cc1nnc(NC(=O)c2cn(-c3ccccc3)nc2-c2ccccc2C)o1", "710 nM"],
  ["O=C(NC1CC1)c1ccc(N2CCOc3ccc(Cl)cc32)s1", "1030 nM"],
  ["Cc1cc(Nc2ccc(C(F)(F)F)cc2)n2ccnc2n1", "380 nM"],
  ["Cc1ccc(NC(=O)c2cc(S(=O)(=O)NC(C)(C)C)ccc2C)nc1", "930 nM"],
  ["c1csc(-c2cnc3sc(NCC4CCOCC4)nn23)c1", "1370 nM"],
  ["COc1cc2ncnc(NC3CCN(Cc4ccccc4)CC3)c2cc1OC", "620 nM"],
  ["Cc1cc(C)nc(-n2nc(C)cc2Nc2ccccc2)n1", "> 2000 nM"],
  ["CCc1ccc(C(NCc2nc(N)nc(N(C)C)n2)C(C)C)cc1 (configuration not stated)", "> 2000 nM"],
  ["COc1ccccc1C(C)NCC(=O)Nc1cc(C(F)(F)F)ccc1Cl (configuration not stated)", "1380 nM"],
  ["c1ccc2c(c1)CN(CC1CC1)CC1(CCN(Cc3c[nH]c4cnccc34)CC1)O2", "610 nM"],
  ["Cc1cccc(NC(=O)c2cc(S(=O)(=O)N(C)c3ccc(F)cc3)ccc2Cl)n1", "1580 nM"],
  ["CN1CCN(S(=O)(=O)c2ccc(-c3ccc4c(Nc5ccc6nn[nH]c6c5)ccnc4c3)cc2)CC1", "420 nM"],
  ["COc1ccc(CN2CCOc3ccc(C(C)(O)CN(C)C)cc3C2)cc1C (configuration not stated)", "> 2000 nM"]
]}

* * *

Tested on: Mycobacterium tuberculosis
Assay: AntiMycobacterium tuberculosis activity 2-week Alamar Blue 7H9/cholesterol/BSA/Tx MIC (uM)
Type: functional
Settings: 336 h
In this scheme, each record receives a class according to its MIC; the ranges are low bin (below 3 µM), mid bin (3 µM to below 10 µM), high bin (10 µM or more)

{"columns": ["smi", "className"],
 "data": [
  ["Nc1cccnc1Nc1ccc(Cl)cc1", "mid bin"],
  ["Cc1cc(NCCc2ccccc2)nc(NC(=N)Nc2ccc(Cl)cc2)n1", "low bin"],
  ["O=C(NC1CCCCC1)N1CCN(Cc2ccc3c(c2)OCO3)CC1", "high bin"],
  ["Cc1cc(Cl)ccc1NC(=O)CCc1ccc(S(=O)(=O)NCC(C)C)cc1", "mid bin"],
  ["COc1cc(CN2CCC3(C=Cc4ccccc43)CC2)cc2c1OCO2", "low bin"],
  ["Nc1ncnc2c1ncn2[C@@H]1O[C@H](COS(=O)(=O)NC(=O)c2ccccc2O)[C@@H](O)[C@H]1O", "high bin"],
  ["Cc1ccc2nc(Cl)c(CNCc3cccs3)cc2c1", "high bin"],
  ["Cn1c(=O)c2c(S(C)(=O)=O)snc2n(C)c1=O", "high bin"],
  ["O=C(CCC1CCCCC1)Nc1cccc(-c2nnc(-c3ccco3)o2)c1", "mid bin"],
  ["CCCCOC(=O)Nc1cc2nc(C3CCCCC3)[nH]c2cc1N1CCCC1", "low bin"],
  ["CCOc1ccc(-c2nc(CNCCc3ccc(F)cc3)cs2)cc1", "high bin"]
]}

* * *

System: Plasmodium falciparum
Assay: Antimalarial activity: Asexual Blood Stage Plasmodium falciparum Dd2 IC50 (uM)
Type: functional, organism-based
pIC50: −log10 of the molar value.
pIC50 values, listed per item

{"columns": ["compound", "cmp", "pIC50"],
 "data": [
  ["CNC(=O)c1cc(S(=O)(=O)N2CCN(c3ccccn3)CC2)cs1", "=", 6.07],
  ["CC(C)(C)c1cc(C(=O)Nc2cccnc2)cc(C(=O)Nc2cccnc2)c1", "=", 5.79],
  ["CC(C)(C)c1cc(C(=O)N2CCN(c3nccnc3C#N)CC2)n(Cc2ccccc2)n1", "=", 6.00],
  ["COc1cccc(CC(=O)N2CCC(n3c(C)nc4ccc(F)cc43)CC2)c1", "=", 6.64],
  ["CCn1ncc2c(NC3CCOCC3)c(CNC(=O)c3ccnn3C)c(C)nc21", "=", 6.41],
  ["COc1ccc(Cl)cc1NC(=O)CN(C)C(=O)c1cnn(-c2ccccc2)n1", "=", 6.62],
  ["C[C@]1(O)C[C@@H](c2nc(-c3ccc4ccc(-c5ccccc5)nc4c3)c3c(N)nccn32)C1 [LINSITINIB]", "<", 5.70],
  ["CCOc1ccccc1C(=O)Nc1cccc(-c2nc3ncccn3c2C)c1", "=", 5.57],
  ["CN1CCN(c2nccc3nc(-c4ccc(F)c(F)c4)[nH]c23)CC1", "=", 5.77],
  ["CCCNC(=O)N1CCC2(CC1)CC(=O)c1cc(C)ccc1O2", "=", 5.51],
  ["O=C(Nc1nc(-c2ccccn2)cs1)C1CC1c1ccccc1F (stereo unspecified)", "<", 5.70],
  ["Cc1cc(NC(=O)c2ccc(S(=O)(=O)N(Cc3ccccc3)C(C)C)cc2)no1", "=", 5.87],
  ["CNC(=O)CNc1nc(-c2ccccn2)nc2scc(-c3ccccc3)c12", "<", 5.70],
  ["CN1CCN(c2nccc3[nH]c(-c4cccc(F)c4)cc23)CC1", "=", 5.68],
  ["CC(C)C(C(=O)Nc1ccc(S(=O)(=O)N(C)C)cc1)c1ccc(Cl)cc1 (stereo unspecified)", "=", 6.19],
  ["CCN(CC)S(=O)(=O)c1ccc(Cl)c(C(=O)Nc2ccc3nc(C)sc3c2)c1", "=", 6.26],
  ["CC(=O)Nc1ccc(NC(=O)c2cc(-c3cc(Cl)ccc3O)n[nH]2)cc1", "=", 6.32],
  ["CN(C(=O)c1cc2c(-c3cncnc3)cccc2[nH]1)c1ccccc1", "=", 6.17],
  ["COc1ccc(CN2CCOc3ccc(C(C)(O)CN(C)C)cc3C2)cc1C (stereo unspecified)", "=", 5.83],
  ["CCCn1c(NC(=O)c2ccc3ccccc3n2)nc2ccccc21", "<", 5.70],
  ["O=C(Nc1ccc(N2CCNCC2)cc1)c1ccn2ncc(-c3cccc(Cl)c3)c2n1", "=", 5.92]
]}
